- System: CCRF-CEM
- assay-comment: NCI tumour cell line growth inhibition, 48 h
Calls of active or inactive are those of the source. No stated cut-off is given here; in the data, active = GI50 up to about 1.1 µM and inactive = higher.
Answer with one of the outcomes active, inactive

How was C[P+](C)(C)C classified in this test?
inactive

---

Each entry below carries its recorded GI50.
- Test system: OVCAR-4
- assay-comment: NCI tumour cell line growth inhibition, 48 h
Active and inactive are the calls of the source. Rule as the data show it: active = GI50 up to about 1.1 µM and inactive = higher.

Look over these answered cases.
>  <compound>
CN1CCN(CCCBr)CC1

>  <test-readout>
GI50

>  <result>
> 100 µM (inactive)

$$$$
>  <compound>
CSc1n/c(=N\c2ccccc2)sn1-c1ccccc1

>  <test-readout>
GI50

>  <result>
5.3 µM (inactive)

$$$$
>  <compound>
CCn1c(=O)c2c(=O)[nH][nH]c2c2ccccc21

>  <test-readout>
GI50

>  <result>
> 100 µM (inactive)

$$$$
>  <compound>
COc1ccc(N[S+]([O-])c2ccccc2OC)cc1 (stereo unspecified)

>  <test-readout>
GI50

>  <result>
53.7 µM (inactive)

$$$$
>  <compound>
COC1CC(N)(c2ccccc2)C(O)C(C)O1 (stereo unspecified)

>  <test-readout>
GI50

>  <result>
> 100 µM (inactive)

$$$$

// moving on: another record for GI50
Could you share what GI50 was measured for Nc1nc(Sc2ccc([N+](=O)[O-])c3nonc23)c2nc[nH]c2n1 , tested on OVCAR-4?
1.14 µM (inactive)

From: ChEMBL document CHEMBL1201862
